- tested-on: Human recombinant HDAC4 (Homo sapiens (Human))
- Sequence (P56524 2-1084): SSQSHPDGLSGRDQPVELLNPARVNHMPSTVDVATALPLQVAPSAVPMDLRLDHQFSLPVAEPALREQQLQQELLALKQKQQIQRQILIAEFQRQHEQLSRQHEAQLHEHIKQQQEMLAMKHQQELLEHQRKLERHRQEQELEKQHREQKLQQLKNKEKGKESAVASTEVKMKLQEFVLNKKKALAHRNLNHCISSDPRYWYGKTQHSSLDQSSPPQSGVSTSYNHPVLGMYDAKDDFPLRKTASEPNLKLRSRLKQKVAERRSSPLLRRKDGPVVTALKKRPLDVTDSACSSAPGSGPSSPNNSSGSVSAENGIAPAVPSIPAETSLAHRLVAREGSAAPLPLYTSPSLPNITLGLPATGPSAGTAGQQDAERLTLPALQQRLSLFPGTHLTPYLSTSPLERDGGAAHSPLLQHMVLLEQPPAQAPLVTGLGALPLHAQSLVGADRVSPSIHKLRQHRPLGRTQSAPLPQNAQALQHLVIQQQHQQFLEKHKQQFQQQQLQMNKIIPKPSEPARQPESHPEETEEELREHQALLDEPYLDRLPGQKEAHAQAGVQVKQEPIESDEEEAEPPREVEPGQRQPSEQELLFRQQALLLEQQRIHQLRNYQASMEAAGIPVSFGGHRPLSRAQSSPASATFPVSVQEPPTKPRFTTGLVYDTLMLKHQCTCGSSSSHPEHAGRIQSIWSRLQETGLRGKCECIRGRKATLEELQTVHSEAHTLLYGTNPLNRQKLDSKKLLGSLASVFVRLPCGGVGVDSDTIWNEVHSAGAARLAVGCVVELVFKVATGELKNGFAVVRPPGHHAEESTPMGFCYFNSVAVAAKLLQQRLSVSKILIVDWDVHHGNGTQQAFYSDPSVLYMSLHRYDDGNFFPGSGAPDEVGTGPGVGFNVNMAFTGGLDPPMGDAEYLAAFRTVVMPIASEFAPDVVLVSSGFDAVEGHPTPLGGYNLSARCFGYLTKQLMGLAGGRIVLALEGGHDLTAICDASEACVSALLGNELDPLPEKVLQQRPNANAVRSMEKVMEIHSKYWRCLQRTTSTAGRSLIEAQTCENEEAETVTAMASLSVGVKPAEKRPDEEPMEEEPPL
- experiment-description: Test 2: HDAC4 assay (fluorogenic substrate, 5 μM acetyl-Gly-Ala-Lys(ε-trifluoroacetyl)-AMC)
- Assay type: biochemical
- condition-info: Test 2 (values without asterisk)
Categories are assigned from the measured IC50 using these intervals: bottom bin (below 200 nM), middle bin (200 nM to below 600 nM), top bin (600 nM or more)

CCCCNC(=O)Cc1ccc(-c2noc(C(F)(F)F)n2)cc1 [Example 6] | top bin

Record CN(C)CCCN(C)S(=O)(=O)c1ccc(-c2noc(C(F)(F)F)n2)cc1 [Example 112] — which class?
top bin

Assign a category based on measured IC50 for O=C(Nc1cccnc1)c1ccc(-c2noc(C(F)(F)F)n2)cc1 [Example 48] and give only the class name.
bottom bin

# classify by IC50 band: CN(C)C(=O)Cc1ccc(-c2noc(C(F)(F)F)n2)cc1 [Example 4]
top bin

Classify this molecule: CC(C)NC(=O)c1ccc(-c2noc(C(F)(F)F)n2)cc1 [Example 20]
top bin

Looking at O=C(c1ccc(-c2noc(C(F)(F)F)n2)cc1)N1CCCC1 [Example 23] , which class would you pick?
top bin

Category lookup for the molecule CC(CN(C)C)NC(=O)c1ccc(-c2noc(C(F)(F)F)n2)cc1 (centres unmarked) [Example 53]
bottom bin

Bin this entry: CN(C)CC(C)(C)NC(=O)c1ccc(-c2noc(C(F)(F)F)n2)cc1 [Example 119]
bottom bin

Exercise: read the entry CCCN(CC)C[C@@H](C)NC(=O)c1ccc(-c2noc(C(F)(F)F)n2)cc1 [Example 145] and state which class it falls under.
bottom bin

Kindly identify the class of CN(C)S(=O)(=O)c1ccc(-c2noc(C(F)(F)F)n2)cc1 [Example 114] .
top bin

# bin lookup: classify O=C(NCc1ccc(CN2CCOCC2)cc1)c1ccc(-c2noc(C(F)(F)F)n2)cc1 [Example 44] by its IC50
middle bin

// bin(item) where item = C[C@@H](CN(C)C)NC(=O)c1ccc(-c2noc(C(F)(F)F)n2)cc1 [Example 82]
bottom bin

For this molecule, which bin applies? CC(C)N(C)C(=O)c1ccc(-c2noc(C(F)(F)F)n2)cc1 [Example 24]
top bin

Category lookup for the molecule O=C(N[C@@H]1CCNC1)c1ccc(-c2noc(C(F)(F)F)n2)cc1F [Example 95]
bottom bin

Category of CC(C)(C)OC(=O)N1CCN(C(=O)c2ccc(-c3noc(C(F)(F)F)n3)cc2)CC1 [Example 55] , please.
top bin

Which bin, given its IC50, does CCN(C)C(=O)c1ccc(-c2noc(C(F)(F)F)n2)cc1 [Example 14] occupy?
top bin

Pick a category. Item: CC(CNC(=O)c1ccc(-c2noc(C(F)(F)F)n2)cc1F)N(C)C (centres unmarked) [Example 122]
bottom bin

Please indicate the class for CN(C)CCNC(=O)c1ccc(-c2noc(C(F)(F)F)n2)cc1 [Example 31] based on its IC50.
bottom bin

For this molecule, which bin applies? CC(C)(C)OC(=O)NC1CCCCC1NC(=O)c1ccc(-c2noc(C(F)(F)F)n2)cc1 (centres unmarked) [Example 60]
top bin

###

- tested-on: Human recombinant full length HDAC6 (Homo sapiens (Human))
- Sequence (Q9UBN7 whole entry): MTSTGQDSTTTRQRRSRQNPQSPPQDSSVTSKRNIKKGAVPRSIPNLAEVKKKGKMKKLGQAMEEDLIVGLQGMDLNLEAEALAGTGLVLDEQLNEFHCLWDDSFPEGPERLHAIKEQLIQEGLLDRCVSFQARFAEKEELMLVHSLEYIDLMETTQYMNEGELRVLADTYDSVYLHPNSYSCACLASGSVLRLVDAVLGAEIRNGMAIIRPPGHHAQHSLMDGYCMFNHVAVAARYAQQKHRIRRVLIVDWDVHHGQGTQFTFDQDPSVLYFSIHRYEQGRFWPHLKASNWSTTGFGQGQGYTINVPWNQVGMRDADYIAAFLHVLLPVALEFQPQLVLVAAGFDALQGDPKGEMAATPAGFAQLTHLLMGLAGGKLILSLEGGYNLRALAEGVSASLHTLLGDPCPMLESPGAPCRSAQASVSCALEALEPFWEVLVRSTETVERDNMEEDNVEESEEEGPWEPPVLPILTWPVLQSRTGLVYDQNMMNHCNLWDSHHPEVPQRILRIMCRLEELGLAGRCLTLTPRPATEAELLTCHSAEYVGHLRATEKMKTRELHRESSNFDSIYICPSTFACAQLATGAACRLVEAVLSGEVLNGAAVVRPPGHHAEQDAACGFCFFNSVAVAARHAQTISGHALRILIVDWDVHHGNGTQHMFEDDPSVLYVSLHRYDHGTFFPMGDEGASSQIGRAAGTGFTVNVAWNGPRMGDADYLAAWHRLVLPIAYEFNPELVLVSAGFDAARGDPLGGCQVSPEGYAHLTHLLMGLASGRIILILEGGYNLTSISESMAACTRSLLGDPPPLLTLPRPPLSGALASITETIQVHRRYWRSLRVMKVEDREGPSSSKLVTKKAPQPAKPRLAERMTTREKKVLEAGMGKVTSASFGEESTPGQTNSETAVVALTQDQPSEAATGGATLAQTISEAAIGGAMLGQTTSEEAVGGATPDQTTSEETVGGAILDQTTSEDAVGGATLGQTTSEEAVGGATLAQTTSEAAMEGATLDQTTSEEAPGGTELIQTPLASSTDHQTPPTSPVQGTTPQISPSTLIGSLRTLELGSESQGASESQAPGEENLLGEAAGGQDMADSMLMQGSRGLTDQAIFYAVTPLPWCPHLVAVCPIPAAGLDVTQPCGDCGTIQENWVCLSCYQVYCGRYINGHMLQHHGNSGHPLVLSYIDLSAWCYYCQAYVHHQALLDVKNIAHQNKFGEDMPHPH
- experiment-description: Test 4: HDAC6 assay
- Assay type: biochemical
- condition-info: Test 4; substrate 5 μM acetyl-Gly-Ala-Lys(acetyl)-AMC
pIC50: −log10 of the molar value.
# pIC50 annotations

Lab note: measured pIC50 of CC(C)(C)OC(=O)N1CCC(NC(=O)c2ccc(-c3noc(C(F)(F)F)n3)cc2)CC1 [Example 59] was < 5.00

Entry CC(=O)N1CCC(NC(=O)c2ccc(-c3noc(C(F)(F)F)n3)cc2)CC1 [Example 64] , pIC50 reported as < 5.00

Data point: CN(C)C(=O)c1ccc(-c2noc(C(F)(F)F)n2)cc1 [Example 1] ; pIC50 = < 5.00
